# Tested on: morphine-induced Straub tail in mice
# experimentNotes: Narcotic antagonist (anti-Straub tail) test in mice
# Type: in vivo
# particulars: ip, 10 min; mouse, compound intraperitoneal, 10 min later 53 mg/kg morphine sulfate s.c.; compounds of the invention as hydrochloride salt; 135 mg/kg or higher = inactive; read-out: Antistraub Tail ED50 (Mouse ED50 Values)
// values below are reported ED50
Please state the figure in µg/kg; there is no need to write the unit.

Record excerpt, results attached:
# compound, units, testResult
measured = [
    ("CC(=O)Oc1ccc2c3c1O[C@H]1C(F)=CC[C@H]4[C@@H](C2)N(CC2CC2)CC[C@]314", "µg/kg", 2.2),
    ("Cl.Oc1ccc2c3c1OC1C(F)=CC[C@H]4[C@@H](C2)N(CC2CC2)CC[C@]314 (some centres unmarked)", "µg/kg", 180),
    ("CC(=O)Oc1ccc2c3c1O[C@H]1C(F)(F)CC[C@H]4[C@@H](C2)N(CC2CC2)CC[C@@]341", "µg/kg", 3.1),
]

# input Please list ED50 recorded for the compound Oc1ccc2c3c1OC1C(F)(F)CC[C@H]4[C@@H](C2)N(CC2CC2)CC[C@]314 (some centres unmarked)
# output 3
